- Test system: primary human fibroblasts derived from IPF patients (LL29 cells)
- protocol text: Inhibition of the fibrotic process in TGF-β1 treated IPF patient fibroblasts (αSMA staining)
- Assay type: cell-based
- condition summary: Fibroblast, 96 h, LL29 cells treated with TGF-β1 (20 ng/mL), 4 days, read-out: Inhibition of fibrosis EC50
pEC50: −log10 of the molar value.
Documented pEC50 across a set of molecules

Known pEC50 results, listed for orientation:
{"columns": ["structure smiles", "subject of test", "pEC50"],
 "data": [
  ["CCCC(=O)Nc1cncc(-c2cnc3[nH]nc(-c4nc5c(-c6ccncc6)ccnc5[nH]4)c3c2)c1", "primary human fibroblasts derived from IPF patients (LL29 cells)", "≤ 5.00"],
  ["CN(C)c1cncc(-c2cnc3[nH]nc(-c4nc5c(N6CCCCC6)ccnc5[nH]4)c3c2)c1", "primary human fibroblasts derived from IPF patients (LL29 cells)", "≤ 5.00"],
  ["Fc1cccc(-c2ccnc3[nH]c(-c4n[nH]c5ncc(-c6ccncc6)cc45)nc23)c1", "primary human fibroblasts derived from IPF patients (LL29 cells)", "≤ 5.00"],
  ["CN1CCN(c2ccnc3[nH]c(-c4n[nH]c5ncc(-c6cncc(N)c6)cc45)nc23)CC1", "primary human fibroblasts derived from IPF patients (LL29 cells)", "≤ 5.00"],
  ["c1cc(-c2ccoc2)c2nc(-c3n[nH]c4ncc(-c5cncc(CNCC6CCCC6)c5)cc34)[nH]c2n1", "primary human fibroblasts derived from IPF patients (LL29 cells)", "≤ 5.00"],
  ["CN(C)Cc1cncc(-c2cnc3[nH]nc(-c4nc5c(-c6cccc(F)c6)ccnc5[nH]4)c3c2)c1", "primary human fibroblasts derived from IPF patients (LL29 cells)", 5.59]
]}

Read the entry O=C(Nc1cncc(-c2cnc3[nH]nc(-c4nc5c(N6CCCCC6)ccnc5[nH]4)c3c2)c1)C1CC1 and write its reported pEC50. 6.38

###

- Test system: primary human fibroblasts derived from IPF patients (LL29 cells)
- protocol text: Inhibition of the fibrotic process in TGF-β1 treated IPF patient fibroblasts (αSMA staining)
- Type: cell-based
- condition summary: Fibroblast, 96 h, LL29 cells treated with TGF-β1 (20 ng/mL), 4 days, read-out: Inhibition of fibrosis EC50
measured metric: EC50 (nM)
Answer format: numeric, nM implied, no suffix.

{"columns": ["structure smiles", "EC50 [nM]"],
 "data": [
  ["CCC(=O)Nc1cncc(-c2cnc3[nH]nc(-c4nc5c(N6CCCCC6)ccnc5[nH]4)c3c2)c1", 853]
]}

Give a short answer stating reported EC50 for Fc1cccc(-c2ccnc3[nH]c(-c4n[nH]c5ncc(-c6cnccn6)cc45)nc23)c1 . 13

// fetch EC50 given entry Cc1ccc(-c2ccnc3[nH]c(-c4n[nH]c5ncc(-c6cncc(NC(=O)C7CCCC7)c6)cc45)nc23)s1 1390

Given the compound CN1CCN(c2ccnc3[nH]c(-c4n[nH]c5ncc(-c6cncc(CN7CCCCC7)c6)cc45)nc23)CC1 , write its reported EC50. 3040

###

- Test system: primary human fibroblasts derived from IPF patients (LL29 cells)
- protocol text: Inhibition of the fibrotic process in TGF-β1 treated IPF patient fibroblasts (αSMA staining)
- Assay type: cell-based
- condition summary: Fibroblast, 96 h, LL29 cells treated with TGF-β1 (20 ng/mL), 4 days, read-out: Inhibition of fibrosis EC50
- Source text: The above synthesized compounds were screened using primary human fibroblasts (derived from IPF patients) treated with TGF-β1 to determine their ability to inhibit the fibrotic process. […]
# EC50 per entry
Numeric only. Scale: nM

Reference set, count: 3
{"columns": ["structure smiles", "unit descriptor", "EC50"],
 "data": [
  ["c1cncc(-c2cnc3[nH]nc(-c4nc5cccnc5[nH]4)c3c2)c1", "nM", 501],
  ["Cn1cc(-c2cnc3[nH]nc(-c4nc5c(-c6cccc(F)c6)ccnc5[nH]4)c3c2)cn1", "nM", 118],
  ["CN(C)Cc1cncc(-c2cnc3[nH]nc(-c4nc5c(N6CCCCC6)ccnc5[nH]4)c3c2)c1", "nM", 1440]
]}

Query EC50 for O=C(Nc1cncc(-c2cnc3[nH]nc(-c4nc5c(-c6ccccc6F)ccnc5[nH]4)c3c2)c1)C1CCCC1 587

Please give measured EC50 of the following entry: Cc1ccncc1-c1cnc2[nH]nc(-c3nc4c(-c5cc(F)cc(CNS(C)(=O)=O)c5)ccnc4[nH]3)c2c1 674

###

Attribute: IC50
- System: Wnt activity (SW480 colon carcinoma cells stably expressing the Sp5-Luc reporter gene)
- protocol text: Sp5-Luc reporter gene screening assay for Wnt activity
- Type: cell-based
- condition summary: Homo sapiens

Reference set (3 entries):
{"columns": ["structure smiles", "IC50"],
 "data": [
  ["CCNCc1cncc(-c2cnc3[nH]nc(-c4nc5c(-c6ccccn6)ccnc5[nH]4)c3c2)c1", "> 10 µM"],
  ["O=C(CC1CCNCC1)Nc1cncc(-c2cnc3[nH]nc(-c4nc5c(-c6cccc(F)c6)ccnc5[nH]4)c3c2)c1", "> 10 µM"],
  ["Cc1ccc(-c2ccnc3[nH]c(-c4n[nH]c5ncc(-c6cncc(CN7CCCCC7)c6)cc45)nc23)s1", "> 10 µM"]
]}

Pending molecule:
Give IC50 for the following molecule: CN(C)c1cncc(-c2cnc3[nH]nc(-c4nc5c(N6CCCCC6)ccnc5[nH]4)c3c2)c1 0.385 µM

###

- System: Wnt activity (SW480 colon carcinoma cells stably expressing the Sp5-Luc reporter gene)
- protocol text: Sp5-Luc reporter gene screening assay for Wnt activity
- Format: cell-based
- condition summary: Homo sapiens
pIC50: −log10 of the molar value.
measured metric: pIC50

{"columns": ["compound", "subject of test", "measured metric", "result"],
 "data": [
  ["c1cncc(-c2cnc3[nH]nc(-c4nc5c(-c6cccnc6)ccnc5[nH]4)c3c2)c1 [Compound 68]", "Wnt activity (SW480 colon carcinoma cells stably expressing the Sp5-Luc reporter gene)", "pIC50", "< 5.00"],
  ["CC(=O)c1ccc(-c2ccnc3[nH]c(-c4n[nH]c5ncc(-c6cncc(NC(=O)C7CCCCC7)c6)cc45)nc23)s1 [Compound 384]", "Wnt activity (SW480 colon carcinoma cells stably expressing the Sp5-Luc reporter gene)", "pIC50", "< 5.00"],
  ["c1cncc(-c2ccnc3[nH]c(-c4n[nH]c5ncc(-c6cncc(CN7CCCCC7)c6)cc45)nc23)c1 [Compound 78]", "Wnt activity (SW480 colon carcinoma cells stably expressing the Sp5-Luc reporter gene)", "pIC50", "< 5.00"]
]}

Complete the entry with pIC50 for CN(C)Cc1cncc(-c2cnc3[nH]nc(-c4nc5c(-c6cccs6)ccnc5[nH]4)c3c2)c1 [Compound 297] < 5.00

Give pIC50 for the following compound: c1cc(-c2ccoc2)c2nc(-c3n[nH]c4ncc(-c5cncc(CNCC6CCCC6)c5)cc34)[nH]c2n1 [Compound 282] < 5.00

# return recorded pIC50 for input Fc1cccc(-c2ccnc3[nH]c(-c4n[nH]c5ncc(-c6ccccn6)cc45)nc23)c1 [Compound 925] < 5.00

Input Fc1cccc(-c2ccnc3[nH]c(-c4n[nH]c5ncc(-c6cnccn6)cc45)nc23)c1 [Compound 926] , output reported pIC50. < 5.00

Note down pIC50 recorded for CC(C)C(=O)Nc1cncc(-c2cnc3[nH]nc(-c4nc5c(N6CCN(C)CC6)ccnc5[nH]4)c3c2)c1 [Compound 192] < 5.00

Assign pIC50 to the following record: Fc1cccc(-c2ccnc3[nH]c(-c4n[nH]c5ncc(-c6ccncc6)cc45)nc23)c1 [Compound 924] < 5.00

Look up and state reported pIC50 for O=C(Nc1cncc(-c2cnc3[nH]nc(-c4nc5c(-c6ccncc6)ccnc5[nH]4)c3c2)c1)C1CCCCC1 [Compound 106] < 5.00

Annotate the compound Cc1ccncc1-c1cnc2[nH]nc(-c3nc4c(-c5ccncc5)ccnc4[nH]3)c2c1 [Compound 91] with its measured pIC50. < 5.00

###

A collection of molecules and their measured pIC50
- Tested on: Wnt activity (SW480 colon carcinoma cells stably expressing the Sp5-Luc reporter gene)
- protocol text: Sp5-Luc reporter gene screening assay for Wnt activity
- Format: cell-based
- condition summary: Homo sapiens
- Method: The screening assay for Wnt activity is described as follows. […] SW480 colon carcinoma cells were transduced with a lentiviral vector expressing luciferase with a human Sp5 promoter consisting of a sequence of eight TCF/LEF binding sites. […] Following incubation, the growth medium was removed and 50 μl of BrightGlo luminescence reagent (Promega) was added to each well of the 96-well assay plates. […]
pIC50: −log10 of the molar value.

Write down pIC50 measured for item CN1CCN(c2ccnc3[nH]c(-c4n[nH]c5ncc(-c6cncnc6)cc45)nc23)CC1 [Compound 209] < 5.00

Quick one: give measured pIC50 for Fc1cccc(-c2ccnc3[nH]c(-c4n[nH]c5ncc(C6=CCNCC6)cc45)nc23)c1 [Compound 910] < 5.00

Using the record for CN(C)Cc1cncc(-c2cnc3[nH]nc(-c4nc5c(-c6cccc(F)c6)ccnc5[nH]4)c3c2)c1 [Compound 10] , state its measured pIC50. < 5.00

Supply measured pIC50 of CN(C)CCOc1cncc(-c2cnc3[nH]nc(-c4nc5c(-c6cccc(F)c6)ccnc5[nH]4)c3c2)c1 [Compound 919] in your reply. < 5.00

Look up pIC50 of FC1(F)CCN(Cc2cncc(-c3cnc4[nH]nc(-c5nc6c(-c7cccs7)ccnc6[nH]5)c4c3)c2)C1 [Compound 309] and report it. 7.42

For the molecule Fc1cccc(-c2ccnc3[nH]c(-c4n[nH]c5ncc(-c6cncc(OCc7ccccc7)c6)cc45)nc23)c1 [Compound 922] , give its measured pIC50 value. < 5.00

Please give measured pIC50 of the following entry: CS(=O)(=O)NCc1cc(F)cc(-c2ccnc3[nH]c(-c4n[nH]c5ncc(-c6cncnc6)cc45)nc23)c1 [Compound 414] < 5.00

Tell me pIC50 reported for CN(C)c1cncc(-c2cnc3[nH]nc(-c4nc5c(-c6cccs6)ccnc5[nH]4)c3c2)c1 [Compound 291] 7.36

Could you please provide reported pIC50 for O=C(CC1CCCCC1)Nc1cncc(-c2cnc3[nH]nc(-c4nc5c(-c6cccc(F)c6)ccnc5[nH]4)c3c2)c1 [Compound 923] ? Thanks! < 5.00

Please report the measured pIC50 for CC(C)Nc1cncc(-c2cnc3[nH]nc(-c4nc5c(-c6ccoc6)ccnc5[nH]4)c3c2)c1 [Compound 270] 7.35

The reported measurements were obtained from patent US10526347B2.
